Values were extracted from paper PMC5486114.

subject.of.test: Human recombinant FGF-1 (Homo sapiens, UniProt P05230)
Construct: Human recombinant FGF-1 consisting of 141 residues; purchased Peprotech; host or cells: E. coli
Sequence (P05230 with tags, fused parts or gaps limits assumed): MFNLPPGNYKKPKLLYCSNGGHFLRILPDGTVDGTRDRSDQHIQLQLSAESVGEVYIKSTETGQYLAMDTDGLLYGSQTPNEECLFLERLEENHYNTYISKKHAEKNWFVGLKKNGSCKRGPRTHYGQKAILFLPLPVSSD
method.notes: STD-NMR initial growth rates (STD0) of trisaccharides in presence of FGF-1
Format: binding
measurement.setup: relative to largest anomeric STD0 of the compound (=100)
measurement.label: Relative STD0 H1-A

compound.string	subject.of.test	endpoint.value
CC(C)O[C@H]1O[C@H](CO)[C@@H](O[C@@H]2O[C@@H](C(=O)O)[C@@H](O[C@H]3O[C@H](COS(=O)(=O)O)[C@@H](O)[C@H](O)[C@H]3NS(=O)(=O)O)[C@H](O)[C@H]2OS(=O)(=O)O)[C@H](O)[C@H]1NS(=O)(=O)O	Human recombinant FGF-1 (Homo sapiens, UniProt P05230)	100
CC(=O)N[C@H]1[C@@H](OC(C)C)O[C@H](COS(=O)(=O)O)[C@@H](O[C@@H]2O[C@@H](C(=O)O)[C@@H](O[C@H]3O[C@H](CO)[C@@H](O)[C@H](O)[C@H]3NS(=O)(=O)O)[C@H](O)[C@H]2OS(=O)(=O)O)[C@@H]1O	Human recombinant FGF-1 (Homo sapiens, UniProt P05230)	67

[I] CC(=O)N[C@H]1[C@@H](OC(C)C)O[C@H](CO)[C@@H](O[C@@H]2O[C@@H](C(=O)O)[C@@H](O[C@H]3O[C@H](COS(=O)(=O)O)[C@@H](O)[C@H](O)[C@H]3NS(=O)(=O)O)[C@H](O)[C@H]2OS(=O)(=O)O)[C@@H]1O
[II] CC(=O)N[C@H]1[C@@H](OC(C)C)O[C@H](COS(=O)(=O)O)[C@@H](O[C@@H]2O[C@@H](C(=O)O)[C@@H](O[C@H]3O[C@H](COS(=O)(=O)O)[C@@H](O)[C@H](O)[C@H]3NS(=O)(=O)O)[C@H](O)[C@H]2OS(=O)(=O)O)[C@@H]1O
Recorded Relative STD0 H1-A values differ for I and II ; which one is higher? Answer = label. I
(I: 62, II: 31)
